The compounds listed here are annotated with their pIC50.
TESTED_TARGET: KLK4 (Homo sapiens)
Construct: purchased Viktor Magdolen (TUM), supplied by an academic laboratory
Sequence (Q9Y5K2 31-254): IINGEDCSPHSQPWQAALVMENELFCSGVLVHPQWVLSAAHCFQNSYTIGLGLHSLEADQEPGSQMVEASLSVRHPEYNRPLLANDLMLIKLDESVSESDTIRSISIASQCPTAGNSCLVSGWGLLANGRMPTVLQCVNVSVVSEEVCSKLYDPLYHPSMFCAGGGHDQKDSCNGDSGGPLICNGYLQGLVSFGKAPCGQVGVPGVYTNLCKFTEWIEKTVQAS
TEST: KLK4 enzymatic inhibition, fluorogenic substrate Boc-Val-Pro-Arg-AMC
Assay type: biochemical
pIC50: −log10 of the molar value.

Known results for compounds:
Query string: Which pIC50 is reported with KLK4 (Homo sapiens) for this entry: CCCCCCOC(=O)NC(c1ccc(NC(=N)N)cc1)P(=O)(Oc1ccccc1)Oc1ccccc1 (centres unmarked) ?
Result string: > 7.00

Query string: Which pIC50 is reported with KLK4 (Homo sapiens) for this entry: N=C(N)Nc1ccc(C(NC(=O)OCCCC(F)(F)F)P(=O)(Oc2ccccc2)Oc2ccccc2)cc1 (centres unmarked) ?
Result string: > 7.00

Query string: Which pIC50 is reported with KLK4 (Homo sapiens) for this entry: N=C(N)Nc1ccc(C(NC(=O)OCc2ccccc2)P(=O)(Oc2ccccc2)Oc2ccccc2)cc1 (centres unmarked) [Compound 5a, 2,2,2-trifluoroacetate, reference compound] ?
Result string: > 7.00

Next:
Query string: Which pIC50 is reported with KLK4 (Homo sapiens) for this entry: COCCOC(=O)NC(c1ccc(NC(=N)N)cc1)P(=O)(Oc1ccccc1)Oc1ccccc1 (centres unmarked) [Compound 29, 2,2,2-trifluoroacetate] ?
Result string: 6.00 to 7.00

Query string: Which pIC50 is reported with KLK4 (Homo sapiens) for this entry: COCCOCCOC(=O)NC(c1ccc(NC(=N)N)cc1)P(=O)(Oc1ccc(NC(C)=O)cc1)Oc1ccc(NC(C)=O)cc1 (centres unmarked) ?
Result string: > 7.00

====

The molecules listed here are annotated with their pIC50.
TESTED_TARGET: Matriptase (Homo sapiens, UniProt Q9Y5Y6)
Sequence (Q9Y5Y6 whole entry, species assumed): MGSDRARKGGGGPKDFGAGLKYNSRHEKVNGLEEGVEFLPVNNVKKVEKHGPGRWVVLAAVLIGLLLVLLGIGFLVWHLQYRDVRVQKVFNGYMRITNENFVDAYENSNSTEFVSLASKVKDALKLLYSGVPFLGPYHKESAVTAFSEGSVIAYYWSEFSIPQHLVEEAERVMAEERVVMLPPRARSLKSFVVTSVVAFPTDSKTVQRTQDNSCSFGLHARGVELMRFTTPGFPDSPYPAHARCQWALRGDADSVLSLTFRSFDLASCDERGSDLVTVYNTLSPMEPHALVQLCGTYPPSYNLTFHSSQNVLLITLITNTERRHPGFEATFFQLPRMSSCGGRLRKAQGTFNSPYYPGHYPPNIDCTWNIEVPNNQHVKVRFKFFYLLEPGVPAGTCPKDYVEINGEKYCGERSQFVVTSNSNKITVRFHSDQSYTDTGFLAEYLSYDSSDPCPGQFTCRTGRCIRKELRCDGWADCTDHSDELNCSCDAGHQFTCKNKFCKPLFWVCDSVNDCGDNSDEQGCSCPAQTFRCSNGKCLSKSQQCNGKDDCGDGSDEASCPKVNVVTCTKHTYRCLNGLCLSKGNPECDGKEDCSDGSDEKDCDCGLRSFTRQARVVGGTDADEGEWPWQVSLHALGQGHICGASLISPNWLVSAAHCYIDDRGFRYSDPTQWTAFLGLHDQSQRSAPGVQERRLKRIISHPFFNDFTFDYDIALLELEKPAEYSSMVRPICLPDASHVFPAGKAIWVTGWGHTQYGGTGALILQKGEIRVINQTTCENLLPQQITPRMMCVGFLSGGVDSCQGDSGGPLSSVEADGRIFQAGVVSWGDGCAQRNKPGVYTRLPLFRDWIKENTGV
TEST: Matriptase inhibition
Assay type: biochemical
pIC50: −log10 of the molar value.

Known results for molecules:
Query string: What measured pIC50 goes with COCCOCCOC(=O)NC(c1ccc(NC(=N)N)cc1)P(=O)(Oc1ccc(NC(C)=O)cc1)Oc1ccc(NC(C)=O)cc1 (stereo not shown) ?
Result string: 5.60 to 6.00

Query string: What measured pIC50 goes with N=C(N)Nc1ccc(C(NC(=O)OCc2ccccc2)P(=O)(Oc2ccccc2)Oc2ccccc2)cc1 (stereo not shown) [Compound 5a, 2,2,2-trifluoroacetate, reference compound] ?
Result string: 5.00 to 5.60

Query string: What measured pIC50 goes with COCCOC(=O)NC(c1ccc(NC(=N)N)cc1)P(=O)(Oc1ccccc1)Oc1ccccc1 (stereo not shown) [Compound 29, 2,2,2-trifluoroacetate] ?
Result string: 5.00 to 5.60

Query string: What measured pIC50 goes with N=C(N)Nc1ccc(C(NC(=O)OCCOCCOCc2cn(CCOCCOCCOCCNC(=O)CN3CCN(CC(=O)O)CCN(CC(=O)O)CCN(CC(=O)O)CC3)nn2)P(=O)(Oc2ccccc2)Oc2ccccc2)cc1 (stereo not shown) ?
Result string: 5.00 to 5.60

Query string: What measured pIC50 goes with N=C(N)Nc1ccc(C(NC(=O)OCCCC(F)(F)F)P(=O)(Oc2ccccc2)Oc2ccccc2)cc1 (stereo not shown) ?
Result string: 5.00 to 5.60

Query string: What measured pIC50 goes with N=C(N)Nc1ccc(CC(NC(=O)OCc2ccccc2)P(=O)(Oc2ccccc2)Oc2ccccc2)cc1 (stereo not shown) [UPA1, reference compound] ?
Result string: 6.00 to 7.00

Next:
Query string: What measured pIC50 goes with COCCOCCOCCOC(=O)NC(c1ccc(NC(=N)N)cc1)P(=O)(Oc1ccccc1)Oc1ccccc1 (stereo not shown) ?
Result string: 5.00 to 5.60
